molecular target: Neu5Ac(a2-3)Gal(b1-4)[Fuc(a1-3)]GlcNAc(b1-2)Man; assay: glycan array binding signal (z-score within array); higher = stronger binding; details: glycan notation: IUPAC condensed, linker removed
This excerpt belongs to a sample that is enriched for the strongest signals.
glycan array binding signal (z-score) by entry:
metric: glycan array binding signal (z-score)

- Agalectin (Anopheles gambiae) (protein) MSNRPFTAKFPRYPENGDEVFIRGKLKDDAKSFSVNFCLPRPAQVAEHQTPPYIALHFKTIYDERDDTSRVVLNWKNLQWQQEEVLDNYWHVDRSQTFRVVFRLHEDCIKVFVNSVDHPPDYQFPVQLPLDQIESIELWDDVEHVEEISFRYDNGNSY: 0.193
- GSL-I (Griffonia simplicifolia) (protein) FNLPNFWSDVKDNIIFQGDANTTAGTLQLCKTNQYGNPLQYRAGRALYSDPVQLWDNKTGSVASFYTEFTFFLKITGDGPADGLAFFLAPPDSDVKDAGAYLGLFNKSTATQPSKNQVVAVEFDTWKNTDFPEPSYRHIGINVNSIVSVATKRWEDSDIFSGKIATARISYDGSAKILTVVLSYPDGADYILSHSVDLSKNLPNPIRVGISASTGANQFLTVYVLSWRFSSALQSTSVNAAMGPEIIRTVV: -0.227
- EPL1 (Trichoderma atroviride), A0PCX2 (protein) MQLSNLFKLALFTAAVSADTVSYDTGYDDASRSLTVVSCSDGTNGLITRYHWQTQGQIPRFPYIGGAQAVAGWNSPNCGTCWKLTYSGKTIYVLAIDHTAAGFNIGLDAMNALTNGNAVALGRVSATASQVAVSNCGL: -0.347
- OS9-MRH (Homo sapiens), Q13438 (protein) IPELLSPMRDAPCLLKTKDWWTYEFCYGRHIQQYHMEDSEIKGEVLYLGYYQSAFDWDDETAKASKQHRLKRYHSQTYGNGSKCDLNGRPREAEVRFLCDEGAGISGDYIDRVDEPLSCSYVLTIRTPRLCPHPLLRPPPSAAPQAI: -0.503
- GNL (Galanthus nivalis) (protein) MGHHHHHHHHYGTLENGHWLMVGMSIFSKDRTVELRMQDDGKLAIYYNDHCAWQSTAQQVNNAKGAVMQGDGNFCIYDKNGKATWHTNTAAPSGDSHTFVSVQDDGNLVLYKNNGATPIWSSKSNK: -0.295
- DC-ASGPR-short (Homo sapiens) (protein) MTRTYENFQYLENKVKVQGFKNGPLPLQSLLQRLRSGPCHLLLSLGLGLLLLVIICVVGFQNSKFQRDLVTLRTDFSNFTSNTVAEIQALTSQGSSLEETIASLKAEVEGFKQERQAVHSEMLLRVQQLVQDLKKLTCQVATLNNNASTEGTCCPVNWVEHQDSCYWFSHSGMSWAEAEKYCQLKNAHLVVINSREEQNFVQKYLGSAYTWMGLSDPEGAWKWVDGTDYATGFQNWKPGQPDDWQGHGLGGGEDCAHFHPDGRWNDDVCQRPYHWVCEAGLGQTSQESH: -0.238
- YASPKCFRYPNGVLACT [Odorranalectin (Odorrana grahami), B3TFE9_RANGR]: -0.405
- MGL1 (Mus musculus), P49300 (protein) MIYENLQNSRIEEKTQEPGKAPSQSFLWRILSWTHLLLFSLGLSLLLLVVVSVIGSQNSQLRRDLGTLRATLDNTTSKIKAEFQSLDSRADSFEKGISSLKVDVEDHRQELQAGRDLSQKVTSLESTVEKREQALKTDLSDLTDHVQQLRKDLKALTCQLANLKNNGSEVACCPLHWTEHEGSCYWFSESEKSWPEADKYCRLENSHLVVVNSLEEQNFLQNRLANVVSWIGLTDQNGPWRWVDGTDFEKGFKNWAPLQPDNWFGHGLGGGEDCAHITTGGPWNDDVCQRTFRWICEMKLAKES: -0.66
- Mermaid3 (Stilbonema majum) (protein) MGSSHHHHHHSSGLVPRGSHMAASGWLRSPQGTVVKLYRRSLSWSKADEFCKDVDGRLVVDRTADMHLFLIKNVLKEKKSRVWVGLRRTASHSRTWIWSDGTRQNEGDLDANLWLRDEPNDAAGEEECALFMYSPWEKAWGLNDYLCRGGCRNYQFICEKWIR: -0.553
- Gal 10 (Homo sapiens), Q05315 (protein) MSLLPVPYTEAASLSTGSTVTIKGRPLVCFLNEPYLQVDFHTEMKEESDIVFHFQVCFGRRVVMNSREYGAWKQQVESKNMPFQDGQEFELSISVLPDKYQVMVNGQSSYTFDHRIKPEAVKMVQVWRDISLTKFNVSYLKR: 2.57
